Numbers sourced from patent US20150064252A1.

assay: Food effect on Compound I pharmacokinetics (fed vs fasted, light or high-fat breakfast); type: in vivo, human; details: human, plasma, oral, 100 mg, 100 mg fasted, high-fat breakfast cohort (Cohort 6), N = 12; read-out: AUCinf GLSM

{"columns": ["Query smiles", "AUC(0-inf), ng·h/mL"],
 "data": [
  ["COC[C@H]1C[C@@H](c2ncc(-c3ccc4c(c3)COc3cc5c(ccc6nc([C@@H]7CC[C@H](C)N7C(=O)[C@@H](NC(=O)OC)C(C)C)[nH]c65)cc3-4)[nH]2)N(C(=O)[C@H](NC(=O)OC)c2ccccc2)C1", 3790]
]}

---

test: Food effect on Compound I pharmacokinetics (fed vs fasted, light or high-fat breakfast); type: in vivo, human; settings: human, plasma, oral, 100 mg, 100 mg fed, light breakfast, N = 12; read-out: AUClast GLSM

{"columns": ["Query smiles", "AUC(0-t), ng·h/mL"],
 "data": [
  ["COC[C@H]1C[C@@H](c2ncc(-c3ccc4c(c3)COc3cc5c(ccc6nc([C@@H]7CC[C@H](C)N7C(=O)[C@@H](NC(=O)OC)C(C)C)[nH]c65)cc3-4)[nH]2)N(C(=O)[C@H](NC(=O)OC)c2ccccc2)C1", 6730]
]}
